tested on: NCI-H522; assay: NCI tumour cell line growth inhibition, 48 h
Calls of active or inactive are those of the source. Cut-off read from the data, not from the text of the source: active = GI50 up to about 1.1 µM and inactive = higher.
Each item that follows carries a reported GI50.

Observe how each entry below is paired with its result.
NCCCNC1(c2cc3ccccc3s2)CCCCC1 :: 3.21 µM (inactive)
COc1ccc2c(c1)CCC(CN1CCN(CCOC(c3ccc(F)cc3)c3ccc(F)cc3)CC1)=C2 :: 13.9 µM (inactive)
Cc1ccc(S(=O)(=O)N2CCC3(C(/C=C/c4ccccc4)=Nc4ccccc43)C2c2ccccc2)cc1 (stereo not given) :: > 100 µM (inactive)
CN(C)CCNC(=O)Cn1cc([N+](=O)[O-])c(=O)c2ccccc21 :: > 100 µM (inactive)

What value of measured GI50 is listed for CCCCN1C(=O)C2Cc3c([nH]c4ccccc34)C(c3cccc(O)c3)N2C1=O (stereo not given) ?
20 µM (inactive)

What value of measured GI50 is listed for CN1C(=O)NC2(O)c3ccccc3C(=O)C12O (stereo not given) ?
> 100 µM (inactive)

What value of measured GI50 is listed for O=c1c2cc(I)ccc2nc(-c2cccs2)n1-c1ccc(O)cc1 ?
13.1 µM (inactive)

What value of measured GI50 is listed for CC1CCCCc2nc3c(c(=O)n21)CCCC3 (stereo not given) ?
> 100 µM (inactive)

What value of measured GI50 is listed for O=Cc1ccc(-c2ccc(-c3ccc(CO)s3)o2)s1 ?
15.7 µM (inactive)

What value of measured GI50 is listed for Nc1nc2c(ncn2C2OC(CO)C(O)C2O)c(=O)o1 (stereo not given) ?
18.6 µM (inactive)
